Value source: ChEMBL document CHEMBL1201862

tested on: MDA-N; experiment: NCI tumour cell line growth inhibition, 48 h
Calls of active or inactive are those of the source. Rule as the data show it: active = GI50 up to about 1.1 µM and inactive = higher.
In this exercise, the only acceptable responses are active, inactive

The examples below pair each entry with its known result.
C=C(C)[C@@H](O)[C@H](O)C[C@H](C)C1CC[C@]2(C)C1=CC[C@@H]1[C@@]3(C)CC[C@@H](OC(C)=O)C(C)(C)[C@@H]3C[C@@H](OC3OC(COC(C)=O)C(O)C(O)C3O)[C@]12C (stereo partly specified)
inactive
C/C(=N\NC(=S)Nc1ccc(Cl)cc1)c1nc2cccnc2[nH]1
inactive
COC(=O)c1cc(C#Cc2cc(OC)ccc2OC)ccc1OC
inactive
Cn1c(=O)c2[nH]c(Nc3cccc(Cl)c3)nc2n(C)c1=O
inactive
O=C(Cc1ccccc1)NNc1nc(NNC(=O)c2ccncc2)nc(Nc2cccc(Cl)c2)n1
inactive
CC(C)CC1NC(=O)CCC(NC(=O)C(Cc2ccc(O)cc2)NC(=O)OCc2ccccc2)C(=O)NC(Cc2ccccc2)C(=O)NC(Cc2ccccc2)NC1=O (stereo unspecified)
inactive
C[C@H]1C[C@H]2[C@@H]3C(C)(C)O[C@]4(O)C(=O)[C@]5(O)[C@@H](C)CC[C@H]1[C@]25C(=O)[C@]34C
inactive
CCOC(=O)C(CCN1CCC2(CC1)C(=O)N(C)CN2c1ccccc1)C(=O)OCC
inactive

--- query ---
Query :: Lab log entry: COc1ccc(OC)c2c1C[C@@H]1C(C#N)N3[C@H](Cc4c(OC)ccc(OC)c4[C@@H]3C)C(=O)N1[C@H]2C (stereo partly specified) — outcome as called in the assay?
Result :: inactive
